system: UACC-62 melanoma; experiment: NCI-60 one-dose screen, 48 h; conditions: 10 µM unless noted
About 83,000 compounds went through this panel and 20% of them were active in at least one assay; those are over-represented in the sample as a whole. Calls of active or inactive are those of the source. How the source made its calls: active means growth percent below 10; inactive means the rest.
Possible outcomes: active, inactive

chemical_string: Nc1c(-c2nc3ccccc3c(=O)[nH]2)nnn1-c1ccc(Cl)cc1
label: inactive
--
chemical_string: C=CCO[C@H]1CO[C@H]2[C@@H]1OC[C@@H]2Oc1ccc(Nc2ccnc(Nc3ccc(O[C@H]4CO[C@H]5[C@@H]4OC[C@@H]5OCC=C)c(Cl)c3)n2)cc1Cl
label: active
--
chemical_string: O=C1NCC(=O)N(Cc2ccco2)[C@H]1Cc1ccccc1
label: inactive
